system_name: full-length beta-catenin (Axin site) (Homo sapiens, UniProt P35222)
Construct: 15 nM full-length beta-catenin, 20 nM FITC labeled peptide in buffer
Sequence (P35222 whole entry): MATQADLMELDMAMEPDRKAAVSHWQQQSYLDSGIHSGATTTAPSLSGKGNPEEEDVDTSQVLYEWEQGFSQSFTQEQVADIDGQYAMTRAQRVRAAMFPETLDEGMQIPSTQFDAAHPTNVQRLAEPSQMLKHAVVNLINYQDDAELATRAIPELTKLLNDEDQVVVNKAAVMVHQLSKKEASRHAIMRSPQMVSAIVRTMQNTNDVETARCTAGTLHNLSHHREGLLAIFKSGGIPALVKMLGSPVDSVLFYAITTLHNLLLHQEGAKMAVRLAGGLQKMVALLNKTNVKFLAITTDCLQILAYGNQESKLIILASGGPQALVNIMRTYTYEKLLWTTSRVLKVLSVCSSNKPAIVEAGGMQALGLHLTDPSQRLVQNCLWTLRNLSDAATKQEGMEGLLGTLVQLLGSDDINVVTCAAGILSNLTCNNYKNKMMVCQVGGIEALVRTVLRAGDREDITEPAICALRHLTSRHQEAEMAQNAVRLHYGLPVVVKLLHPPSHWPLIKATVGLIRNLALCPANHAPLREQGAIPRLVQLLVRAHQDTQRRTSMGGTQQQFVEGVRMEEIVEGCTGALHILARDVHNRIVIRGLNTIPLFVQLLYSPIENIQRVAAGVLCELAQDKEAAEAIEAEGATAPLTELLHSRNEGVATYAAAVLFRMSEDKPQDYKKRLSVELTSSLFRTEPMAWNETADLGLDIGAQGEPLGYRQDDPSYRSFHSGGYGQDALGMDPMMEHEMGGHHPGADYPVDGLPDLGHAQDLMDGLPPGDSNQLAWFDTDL
method_description: Competition fluorescence polarization assay (Axin site probe)
Assay type: binding
test_parameters: competition fluorescence polarization, Table 2; read-out: in vitro FP EC50
pEC50: −log10 of the molar value.
test_readout: pEC50

compound	meas_value
CC[C@H](C)[C@@H]1NC(=O)[C@H](Cc2c[nH]cn2)NC(=O)[C@H](C)NC(=O)[C@H](CC(=O)O)NC(=O)[C@H](C)NC(=O)[C@H]([C@@H](C)CC)NC(=O)[C@](C)(NC(=O)[C@H](C)NC(C)=O)CCCCCCC=CCOC(=O)N2CC[C@@](C(=O)N[C@@H](CCCNC(=N)N)C(=O)N[C@H](C(=O)N[C@@H](Cc3c[nH]c4ccccc34)C(N)=O)C(C)C)(C2)NC1=O [FP0406c, Ac-A-R8-I-A-D-A-H-I-MB-R-V-W-NH2]	6.30 to 7.00

Next item in the queue.
Log: full-length beta-catenin (Axin site) (Homo sapiens, UniProt P35222), compound CC[C@H](C)[C@@H]1NC(=O)[C@H](Cc2c[nH]cn2)NC(=O)[C@H](C)NC(=O)[C@H](CC(=O)O)NC(=O)[C@H](CC(C)C)NC(=O)[C@H]([C@@H](C)CC)NC(=O)[C@](C)(NC(=O)[C@H](C)NC(C)=O)CN(C)C(=O)OCC=CCCCCCC[C@@](C)(C(=O)N[C@@H](CCCNC(=N)N)C(=O)N[C@H](C(=O)N[C@@H](Cc2c[nH]c3ccccc23)C(N)=O)C(C)C)NC1=O (single isomer, unassigned) [FP0335c Isomer 2, Ac-A-ME-I-L-D-A-H-I-S8-R-V-W-NH2] , pEC50 = > 7.00
